Measured MIC90, listed per entry for reference.
- System: Streptococcus pneumoniae
- measurement_description: Antimicrobial activity against quinolone-susceptible Streptococcus pneumoniae by agar dilution method
- Format: functional
Numbers only; they are read as µg/mL.

Reference set, count: 4
Input: Which measured MIC90 value corresponds to `CC1(C)S[C@@H]2[C@H](NC(=O)Cc3ccccc3)C(=O)N2[C@H]1C(=O)O` ?
Output: 2

Input: Ok, now `CO/N=C(\C(=O)N[C@@H]1C(=O)N2C(C(=O)O)=C(COC(N)=O)CS[C@H]12)c1ccco1`
Output: 4

Input: Follow-up item: `C[C@H]1COc2c(N3CCN(C)CC3)c(F)cc3c(=O)c(C(=O)O)cn1c23.C[C@H]1COc2c(N3CCN(C)CC3)c(F)cc3c(=O)c(C(=O)O)cn1c23.O`
Output: 1

Input: Then what about the compound `COc1cc(Cc2cnc(N)nc2N)c2cc(Cc3c(C(=O)N(C)C)[nH]c4ccc(Cl)cc34)oc2c1OC` ?
Output: 0.5

Consider now this further compound.
Input: What does the record list as MIC90 for `O=C(O)c1cn(C2CC2)c2cc(N3CCNCC3)c(F)cc2c1=O` ?
Output: 2
